target: Nav1.7 (or SCN9A) channel (Homo sapiens); experiment: Nav1.7 (hSCN9A) channel block, PatchXpress (PX) whole-cell electrophysiology in stably transfected HEK cells; conditions: estimated IC50 from single point electrophysiology data; PatchXpress platform; HEK cells expressing hSCN9A; clamped at V1/2 of inactivation; read-out: Nav1.7 EIC50
Sequence (Q15858 whole entry): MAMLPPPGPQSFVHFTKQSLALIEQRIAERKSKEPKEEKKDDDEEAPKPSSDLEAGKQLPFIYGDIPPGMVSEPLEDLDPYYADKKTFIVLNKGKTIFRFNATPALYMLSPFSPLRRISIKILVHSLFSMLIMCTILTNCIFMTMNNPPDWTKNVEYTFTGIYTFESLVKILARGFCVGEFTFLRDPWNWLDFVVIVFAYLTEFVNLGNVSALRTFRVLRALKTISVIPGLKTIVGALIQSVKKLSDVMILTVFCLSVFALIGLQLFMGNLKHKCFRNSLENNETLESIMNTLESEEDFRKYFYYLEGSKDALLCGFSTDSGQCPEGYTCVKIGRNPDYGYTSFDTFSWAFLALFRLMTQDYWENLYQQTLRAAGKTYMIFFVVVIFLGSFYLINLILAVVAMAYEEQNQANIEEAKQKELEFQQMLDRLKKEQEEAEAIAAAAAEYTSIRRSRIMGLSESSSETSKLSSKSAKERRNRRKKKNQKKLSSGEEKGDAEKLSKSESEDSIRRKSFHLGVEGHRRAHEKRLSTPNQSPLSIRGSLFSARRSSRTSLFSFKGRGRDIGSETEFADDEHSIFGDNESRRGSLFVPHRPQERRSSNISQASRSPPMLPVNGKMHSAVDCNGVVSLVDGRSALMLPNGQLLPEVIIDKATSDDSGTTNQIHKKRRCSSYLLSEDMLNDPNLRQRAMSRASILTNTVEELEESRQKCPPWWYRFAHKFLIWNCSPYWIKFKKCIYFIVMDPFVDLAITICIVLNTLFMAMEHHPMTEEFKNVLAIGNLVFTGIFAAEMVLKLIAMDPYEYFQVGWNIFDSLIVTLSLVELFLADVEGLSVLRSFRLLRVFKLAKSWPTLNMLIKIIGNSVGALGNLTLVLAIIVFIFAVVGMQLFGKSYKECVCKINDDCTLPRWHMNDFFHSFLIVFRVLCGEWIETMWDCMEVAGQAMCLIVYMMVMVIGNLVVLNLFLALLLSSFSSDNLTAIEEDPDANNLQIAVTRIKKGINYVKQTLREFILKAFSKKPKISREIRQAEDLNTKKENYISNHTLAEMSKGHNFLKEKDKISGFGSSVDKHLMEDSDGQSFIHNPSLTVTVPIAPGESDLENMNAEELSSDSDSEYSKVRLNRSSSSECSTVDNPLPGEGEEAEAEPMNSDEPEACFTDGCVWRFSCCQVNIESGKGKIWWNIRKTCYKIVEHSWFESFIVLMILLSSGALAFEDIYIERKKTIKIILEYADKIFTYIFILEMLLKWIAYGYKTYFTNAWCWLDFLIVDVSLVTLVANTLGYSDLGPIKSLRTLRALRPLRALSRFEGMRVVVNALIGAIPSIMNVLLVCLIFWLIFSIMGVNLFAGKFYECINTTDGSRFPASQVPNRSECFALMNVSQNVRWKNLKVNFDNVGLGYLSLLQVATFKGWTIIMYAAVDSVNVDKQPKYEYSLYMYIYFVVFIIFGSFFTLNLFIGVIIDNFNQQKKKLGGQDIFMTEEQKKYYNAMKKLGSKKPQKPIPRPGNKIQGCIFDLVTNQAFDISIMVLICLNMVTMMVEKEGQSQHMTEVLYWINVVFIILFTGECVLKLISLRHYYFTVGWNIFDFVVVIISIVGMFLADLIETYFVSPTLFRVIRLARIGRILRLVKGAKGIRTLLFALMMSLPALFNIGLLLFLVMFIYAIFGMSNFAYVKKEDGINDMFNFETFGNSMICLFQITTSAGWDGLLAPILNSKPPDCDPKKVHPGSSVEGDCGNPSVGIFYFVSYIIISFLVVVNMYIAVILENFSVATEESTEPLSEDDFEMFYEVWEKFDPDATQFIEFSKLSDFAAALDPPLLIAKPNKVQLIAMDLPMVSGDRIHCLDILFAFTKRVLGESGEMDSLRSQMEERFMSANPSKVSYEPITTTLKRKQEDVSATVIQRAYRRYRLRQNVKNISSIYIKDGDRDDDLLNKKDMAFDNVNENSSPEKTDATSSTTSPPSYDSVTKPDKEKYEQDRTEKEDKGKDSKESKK
Counter-ions that a name gives are not always drawn.
Readout label: IC50 (nM)

Past entries and their recorded results:
{"Molecule": "COCCOCCOCCOCCNC(=O)OCc1cc(-c2cc(-c3cccc(C(F)(F)F)c3)ccc2Oc2ccc(S(=O)(=O)Nc3ncns3)cc2C#N)ccn1", "Readout label": "IC50", "Numeric readout": 10.4}
{"Molecule": "COCCOCCOCCOCCOCCOCCOCCOCCOCCOCCOCCOCCC(=O)N1CCN(c2cc(-c3cc(-c4ccc(C(F)(F)F)cc4)ccc3Oc3ccc(S(=O)(=O)Nc4ncns4)cc3C#N)ccn2)CC1", "Readout label": "IC50", "Numeric readout": 13.4}
{"Molecule": "COCCOCCOCCOCCOCCOCCOCCOCCOCCOCCOCCOCCC(=O)N1CCN(c2cc(-c3cc(-c4ccc(C(F)(F)F)cc4)ccc3Oc3cc(F)c(S(=O)(=O)Nc4nncs4)cc3Cl)ccn2)CC1", "Readout label": "IC50", "Numeric readout": 16}
{"Molecule": "COCCOCCOCCOCCOCCOCCOCCOCCOCCOCCOCCOCCC(=O)N1CCC(CCNCc2cc(-c3cc(-c4cccc(C(F)(F)F)c4)ccc3Oc3cc(F)c(S(=O)(=O)Nc4nncs4)cc3Cl)ccn2)CC1 [Example 33, formate salt]", "Readout label": "IC50", "Numeric readout": 1.7}
{"Molecule": "COCCOCCOCCOCCOCCOCCOCCOCCOCCOCCOCCOCCC(=O)N1CCC(CCNCc2cc(-c3cc(-c4cccc(C(F)(F)F)c4)ccc3Oc3cc(F)c(S(=O)(=O)Nc4cscn4)cc3Cl)ccn2)CC1 [Example 30, hydrochloride salt]", "Readout label": "IC50", "Numeric readout": 23.9}

I = COCCOCCOCCOCCOC1CCN(Cc2cc(-c3cc(-c4cccc(C(F)(F)F)c4)ccc3Oc3ccc(S(=O)(=O)Nc4ncns4)cc3C#N)ccn2)CC1 [Example 23, trifluoroacetate salt]
II = COCCOCCOCCOCCOCCOCCOCCOCCOCCOCCOCCOCCC(=O)NCc1cc(-c2cc(-c3cccc(C(F)(F)F)c3)ccc2Oc2cc(F)c(S(=O)(=O)Nc3nncs3)cc2Cl)ccn1
III = COCCOCCOCCOCCO[C@@H]1CCN(Cc2cc(-c3cc(-c4cccc(C(F)(F)F)c4)ccc3Oc3ccc(S(=O)(=O)Nc4ncns4)cc3C#N)ccn2)C1 [Example 21, trifluoroacetate salt]
IV = COCCOCCOCCOCCOCCOCCOCCOCCOCCOCCOCCOCCC(=O)NCc1cc(-c2cc(-c3cccc(C(F)(F)F)c3)ccc2Oc2cc(F)c(S(=O)(=O)Nc3cscn3)cc2Cl)ccn1
**Query** Ordering criterion: IC50; begin with the maximum. As an answer, provide the labels arranged in the order called for.
**Result** IV, II, III, I

Values were extracted from patent US20170275275A1.
